Hey, just so you know, these numbers are from PubChem BioAssay AID2060620.

- Tested on: 328373-195-R-J1-PDC complex spheroids, viability % test/control;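 further: spheroids exposed to the agents for 7 days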
- experiment summary: Anticancer human tumor 328373-195-R-J1-PDC patient-derived head and neck squamous carcinoma cell line growth inhibition [CLK]
- applied conditions: second compound 0.1 µM; first compound 0.0316 µM; hits give low values
Give measured viability, T/C for each item. Keep answers brief.
Enter your answer as a number in %; do not include the unit.

Asked: Requested field: viability, T/C. Item: O=c1[nH]cc(F)c(=O)[nH]1 + CN1CCN(c2cc(C(=O)Nc3cc4cc(-c5cnn(C)c5)ccc4cn3)ccn2)CC1
Given back: 74.7

Asked: How about this compound: C#Cc1c(F)ccc2cc(O)cc(-c3ncc4c(N5CC6CCC(C5)N6)nc(OCC56CCCN5CC(F)C6)nc4c3F)c12 (centres undefined) + CNC(=O)c1ccc(Nc2nc(OC3CCCC3)c3c(-c4ccc5nc(C)oc5c4)c[nH]c3n2)c(OC)c1
Given back: 11.3

Asked: How about this compound: CC(CO)NC(=O)c1cc(-c2ccc(Cl)cc2)nn(-c2cnn(C)c2)c1=O (centres undefined) + CN1CCN(c2cc(C(=O)Nc3cc4cc(-c5cnn(C)c5)ccc4cn3)ccn2)CC1
Given back: 86.1

Asked: How about this compound: CC(Nc1ccc2c(c1)OCCn1cc(N3C(=O)OCC3C(F)F)nc1-2)C(N)=O (centres undefined) + CNC(=O)c1ccc(Nc2nc(OC3CCCC3)c3c(-c4ccc5nc(C)oc5c4)c[nH]c3n2)c(OC)c1
Given back: 12.4

Asked: How about this compound: Cn1ncnc1[C@H]1c2n[nH]c(=O)c3cc(F)cc(c23)N[C@@H]1c1ccc(F)cc1 + CNC(=O)c1ccc(Nc2nc(OC3CCCC3)c3c(-c4ccc5nc(C)oc5c4)c[nH]c3n2)c(OC)c1
Given back: 9.25

Asked: How about this compound: CC(CO)NC(=O)c1cc(-c2ccc(Cl)cc2)nn(-c2cnn(C)c2)c1=O (centres undefined) + CNC(=O)c1ccc(Nc2nc(OC3CCCC3)c3c(-c4ccc5nc(C)oc5c4)c[nH]c3n2)c(OC)c1
Given back: 16.1

Asked: How about this compound: C#Cc1c(F)ccc2cc(O)cc(-c3ncc4c(N5CC6CCC(C5)N6)nc(OCC56CCCN5CC(F)C6)nc4c3F)c12 (centres undefined) + CN1CCN(c2cc(C(=O)Nc3cc4cc(-c5cnn(C)c5)ccc4cn3)ccn2)CC1
Given back: 80.8

Asked: How about this compound: COC1C=CCC(C)C(C)S(=O)(=O)NC(=O)c2ccc3c(c2)N(CC2CCC21)CC1(CCCc2cc(Cl)ccc21)CO3 (centres undefined) + CNC(=O)c1ccc(Nc2nc(OC3CCCC3)c3c(-c4ccc5nc(C)oc5c4)c[nH]c3n2)c(OC)c1
Given back: 13

Asked: How about this compound: C=C(F)C(=O)N1CCN(c2nc(OCC3CCCN3C)nc3c2CCN(c2cccc4cccc(Cl)c24)C3)CC1CC#N (centres undefined) + CNC(=O)c1ccc(Nc2nc(OC3CCCC3)c3c(-c4ccc5nc(C)oc5c4)c[nH]c3n2)c(OC)c1
Given back: 11.2
